Exercise: state measured koff for each of the binders provided.
Biological target: T1, human IL6R (human, UniProt P08887 20-358, limits assumed)
T1 construct: Antigen of the Biacore experiments
T1 sequence (looked up): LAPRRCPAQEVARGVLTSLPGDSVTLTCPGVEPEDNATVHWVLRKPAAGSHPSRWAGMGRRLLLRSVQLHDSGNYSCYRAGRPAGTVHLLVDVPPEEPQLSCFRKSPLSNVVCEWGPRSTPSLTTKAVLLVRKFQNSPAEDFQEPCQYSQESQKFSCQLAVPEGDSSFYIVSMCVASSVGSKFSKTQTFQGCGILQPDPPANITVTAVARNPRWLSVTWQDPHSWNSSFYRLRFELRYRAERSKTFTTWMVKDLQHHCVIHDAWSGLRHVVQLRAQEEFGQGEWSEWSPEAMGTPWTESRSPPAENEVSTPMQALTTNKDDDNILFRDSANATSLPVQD
Experiment: SPR (Biacore), periplasmic extract
Answer format: numeric, s⁻¹ implied, no suffix.

query: Requested field: koff. Item: IL6R65PMP18B1 (VHH, CDR3 library clone) VHH: EVQLVESGGGLVQPGGSLRLSCAASGSIFKVNAMGWYRQAPGKGRELVAGIISGGSTNYADSVKGRFTISRDNAKNTLYLQMNSLRPEDTAVYYCAFITADTDYDLGKRYWGQGTLVTVSS
result: 0.00072

query: Subsequent entry: IL6R65PMP18E11 (VHH) VHH: EVQLVESGGGLVQPGGSLRLSCAASGTTFRINVMAWYRQAPGKGRELVAGIITNGSTSYADSVKGRFTISRDNAKNTLYLQMNSLRPEDTAVYYCAFVTTNSDYDLGRDYWGQGTLVTVSS
result: 0.00027

query: Subsequent entry: IL6R65PMP13G5 (VHH) VHH: EVQLVESGGGLVQPGGSLRLSCAASGTIFKINIMAWYRQAPGKGRELVAAIINSGSTSYADSVKGRFTISRDNAKNTLYLQMNSLRPEDTAVYYCAFVTTNSDYDLGRDYWGQGTLVTVSS
result: 0.00069
